tested-system: Glutamate receptor 1 (Rattus norvegicus)
Sequence (P19490 whole entry, canonical isoform): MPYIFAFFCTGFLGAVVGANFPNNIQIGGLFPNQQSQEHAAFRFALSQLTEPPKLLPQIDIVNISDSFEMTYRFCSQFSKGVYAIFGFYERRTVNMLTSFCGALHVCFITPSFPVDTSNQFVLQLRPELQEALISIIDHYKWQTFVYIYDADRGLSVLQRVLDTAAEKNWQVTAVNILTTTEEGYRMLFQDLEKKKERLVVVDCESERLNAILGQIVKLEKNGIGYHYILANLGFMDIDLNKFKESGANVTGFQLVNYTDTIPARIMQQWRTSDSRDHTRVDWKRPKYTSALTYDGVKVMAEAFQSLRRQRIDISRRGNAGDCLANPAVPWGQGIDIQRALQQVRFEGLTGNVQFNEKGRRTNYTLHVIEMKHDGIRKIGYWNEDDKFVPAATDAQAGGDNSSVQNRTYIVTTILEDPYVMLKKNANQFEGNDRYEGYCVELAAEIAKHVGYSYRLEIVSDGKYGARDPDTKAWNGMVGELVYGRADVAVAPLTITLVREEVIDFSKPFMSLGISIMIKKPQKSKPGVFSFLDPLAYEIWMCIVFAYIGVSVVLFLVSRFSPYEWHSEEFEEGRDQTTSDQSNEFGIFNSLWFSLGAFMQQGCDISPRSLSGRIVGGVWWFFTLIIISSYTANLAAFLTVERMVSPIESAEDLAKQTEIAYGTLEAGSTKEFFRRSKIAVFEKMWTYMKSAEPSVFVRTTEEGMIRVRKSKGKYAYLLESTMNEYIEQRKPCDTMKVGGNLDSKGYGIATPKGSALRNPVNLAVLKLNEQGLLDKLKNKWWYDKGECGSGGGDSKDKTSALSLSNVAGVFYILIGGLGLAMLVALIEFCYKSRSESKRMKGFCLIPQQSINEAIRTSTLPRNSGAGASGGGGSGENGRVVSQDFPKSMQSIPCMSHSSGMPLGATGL
method-notes: Agonist activity at rat recombinant GluR1 flip isoform expressed in HEK293 cells assessed as increase in intracellular calcium level by Fluo-4/AM assay
Format: functional, cell-based
pEC50: −log10 of the molar value.
A collection of compounds and their measured pEC50
observed-property: pEC50

[[record]]
compound = "CC1CCC=C(C[C@H](N)C(=O)O)c2c(O)noc21 (mixture of isomers)"
tested_system = "Glutamate receptor 1 (Rattus norvegicus)"
measured = 4.15

[[record]]
compound = "N[C@@H](CC1=CCCCc2onc(O)c21)C(=O)O"
tested_system = "Glutamate receptor 1 (Rattus norvegicus)"
measured = 4.49

[[record]]
compound = "CC(C)(C)c1o[nH]c(=O)c1C[C@H](N)C(=O)O"
tested_system = "Glutamate receptor 1 (Rattus norvegicus)"
measured = 3.14


----------
tested-system: Glutamate receptor 1 (Rattus norvegicus)
method-notes: Agonist activity at ConA-treated rat GluR1 flip isoform expressed in Xenopus laevis oocytes assessed as glutamic acid-induced maximal current by two-electrode voltage clamp method
Format: functional, cell-based, Oocyte
pEC50: −log10 of the molar value.
observed-property: pEC50

[[record]]
compound = "CC1CCC=C(C[C@H](N)C(=O)O)c2c(O)noc21 (mixture of isomers)"
measured = 4.15

[[record]]
compound = "CC(C)(C)c1o[nH]c(=O)c1C[C@H](N)C(=O)O"
measured = 4.21

[[record]]
compound = "N[C@@H](CC1=CCCCc2onc(O)c21)C(=O)O"
measured = 5.35


----------
tested-system: Glutamate receptor ionotropic, kainate 3 (Rattus norvegicus, UniProt P42264)
Sequence (P42264 whole entry): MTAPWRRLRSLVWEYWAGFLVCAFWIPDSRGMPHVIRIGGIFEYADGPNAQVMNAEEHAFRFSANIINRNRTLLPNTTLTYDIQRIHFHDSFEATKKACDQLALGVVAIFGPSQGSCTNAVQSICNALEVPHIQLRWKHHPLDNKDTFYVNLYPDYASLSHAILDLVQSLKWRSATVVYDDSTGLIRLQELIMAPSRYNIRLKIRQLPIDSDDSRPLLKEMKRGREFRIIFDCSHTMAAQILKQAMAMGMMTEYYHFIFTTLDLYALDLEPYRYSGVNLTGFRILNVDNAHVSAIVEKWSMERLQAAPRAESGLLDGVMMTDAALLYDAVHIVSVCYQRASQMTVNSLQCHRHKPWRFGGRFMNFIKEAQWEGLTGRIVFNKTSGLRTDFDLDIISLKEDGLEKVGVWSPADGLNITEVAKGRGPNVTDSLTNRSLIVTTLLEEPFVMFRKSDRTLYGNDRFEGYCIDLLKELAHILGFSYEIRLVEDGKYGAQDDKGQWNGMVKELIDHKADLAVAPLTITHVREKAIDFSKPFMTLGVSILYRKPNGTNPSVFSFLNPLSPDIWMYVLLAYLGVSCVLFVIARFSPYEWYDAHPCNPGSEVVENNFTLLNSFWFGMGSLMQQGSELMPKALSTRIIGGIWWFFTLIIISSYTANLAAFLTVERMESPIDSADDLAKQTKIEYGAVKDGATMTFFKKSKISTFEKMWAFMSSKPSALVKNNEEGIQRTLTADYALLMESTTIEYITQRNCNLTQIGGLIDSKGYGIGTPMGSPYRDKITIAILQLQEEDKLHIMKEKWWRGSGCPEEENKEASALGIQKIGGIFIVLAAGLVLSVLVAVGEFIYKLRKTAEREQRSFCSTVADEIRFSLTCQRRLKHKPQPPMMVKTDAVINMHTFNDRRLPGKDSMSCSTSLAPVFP
method-notes: Displacement of [3H]SYM from rat recombinant GluR7A expressed in baculovirus infected Sf9 cells
observed-property: Ki (nM)

[[record]]
compound = "CC1CCC=C(C[C@H](N)C(=O)O)c2c(O)noc21 (mixture of isomers)"
quantity_unit = "nM"
measured = 1380


----------
tested-system: UniProt:P19491
Sequence (P19491 whole entry, canonical isoform): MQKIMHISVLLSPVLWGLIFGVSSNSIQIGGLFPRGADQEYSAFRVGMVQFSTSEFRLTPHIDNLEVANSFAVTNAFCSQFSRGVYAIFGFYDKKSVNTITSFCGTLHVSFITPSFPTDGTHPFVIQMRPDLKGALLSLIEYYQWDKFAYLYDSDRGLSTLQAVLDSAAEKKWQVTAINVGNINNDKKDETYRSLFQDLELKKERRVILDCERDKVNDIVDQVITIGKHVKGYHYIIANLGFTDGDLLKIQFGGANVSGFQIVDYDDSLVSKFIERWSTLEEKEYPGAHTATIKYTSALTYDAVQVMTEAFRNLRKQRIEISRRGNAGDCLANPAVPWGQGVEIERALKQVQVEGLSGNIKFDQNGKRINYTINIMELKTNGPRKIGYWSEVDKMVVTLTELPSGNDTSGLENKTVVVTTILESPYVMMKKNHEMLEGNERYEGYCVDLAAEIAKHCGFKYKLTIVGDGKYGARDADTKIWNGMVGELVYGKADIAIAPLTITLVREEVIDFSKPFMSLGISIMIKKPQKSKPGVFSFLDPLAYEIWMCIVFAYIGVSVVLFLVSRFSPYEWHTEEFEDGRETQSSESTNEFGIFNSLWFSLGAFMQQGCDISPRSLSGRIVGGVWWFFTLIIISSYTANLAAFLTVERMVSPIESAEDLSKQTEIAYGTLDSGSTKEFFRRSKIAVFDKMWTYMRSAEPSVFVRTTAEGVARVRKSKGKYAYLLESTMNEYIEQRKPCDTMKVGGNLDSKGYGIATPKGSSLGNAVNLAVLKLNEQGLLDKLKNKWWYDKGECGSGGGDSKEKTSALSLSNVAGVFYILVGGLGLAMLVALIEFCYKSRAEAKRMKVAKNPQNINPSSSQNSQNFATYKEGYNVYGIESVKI
method-notes: Displacement of [3H]AMPA from rat recombinant GluR2(R) RNA-edited flop isoform expressed in baculovirus infected Sf9 cells
A collection of molecules and their measured Ki
observed-property: Ki (nM)

[[record]]
molecule = "CC(C)(C)c1o[nH]c(=O)c1C[C@H](N)C(=O)O"
observed_property = "Ki"
measured = 1660

[[record]]
molecule = "CC1CCC=C(C[C@H](N)C(=O)O)c2c(O)noc21 (mixture of isomers)"
observed_property = "Ki"
measured = 6310

[[record]]
molecule = "N[C@@H](CC1=CCCCc2onc(O)c21)C(=O)O"
observed_property = "Ki"
measured = 175


----------
A collection of compounds and their measured pKi
tested-system: Glutamate NMDA receptor
method-notes: Displacement of [3H]CGP from NMDA receptor in rat cortical synaptosomes
Format: subcellular, Brain
pKi: −log10 of the molar value.
observed-property: pKi

[[record]]
compound = "N[C@@H](CC1=CCCCc2onc(O)c21)C(=O)O"
measured = "< 4.00"

[[record]]
compound = "CC1CCC=C(C[C@H](N)C(=O)O)c2c(O)noc21 (mixture of isomers)"
measured = "< 4.00"


----------
tested-system: Glutamate receptor 4 (Rattus norvegicus, UniProt P19493)
Sequence (P19493 whole entry): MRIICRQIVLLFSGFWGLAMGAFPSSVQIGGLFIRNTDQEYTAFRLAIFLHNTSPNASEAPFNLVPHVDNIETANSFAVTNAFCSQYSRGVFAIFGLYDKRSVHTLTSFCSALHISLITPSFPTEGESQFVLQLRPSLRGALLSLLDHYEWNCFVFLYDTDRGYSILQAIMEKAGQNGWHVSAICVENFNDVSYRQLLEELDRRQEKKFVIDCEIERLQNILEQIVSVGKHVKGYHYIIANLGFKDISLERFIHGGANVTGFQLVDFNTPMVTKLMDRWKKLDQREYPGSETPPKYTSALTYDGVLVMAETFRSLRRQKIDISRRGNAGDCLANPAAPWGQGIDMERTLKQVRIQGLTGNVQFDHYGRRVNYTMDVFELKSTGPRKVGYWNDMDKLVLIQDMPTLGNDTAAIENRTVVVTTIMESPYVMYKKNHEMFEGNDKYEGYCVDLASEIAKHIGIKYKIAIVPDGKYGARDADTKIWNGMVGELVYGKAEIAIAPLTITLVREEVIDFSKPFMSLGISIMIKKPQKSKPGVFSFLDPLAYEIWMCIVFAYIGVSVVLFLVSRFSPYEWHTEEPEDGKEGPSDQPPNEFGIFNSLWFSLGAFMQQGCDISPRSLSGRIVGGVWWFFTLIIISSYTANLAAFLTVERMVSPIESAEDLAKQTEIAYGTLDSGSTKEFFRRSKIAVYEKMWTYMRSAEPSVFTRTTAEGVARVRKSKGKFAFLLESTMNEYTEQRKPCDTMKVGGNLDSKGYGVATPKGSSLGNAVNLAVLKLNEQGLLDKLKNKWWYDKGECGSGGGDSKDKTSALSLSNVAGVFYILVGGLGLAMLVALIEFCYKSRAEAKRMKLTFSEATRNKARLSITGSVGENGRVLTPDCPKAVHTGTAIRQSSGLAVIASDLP
method-notes: Agonist activity at rat recombinant GluR4 flip isomer expressed in HEK293 cells assessed as increase in intracellular calcium level by Fluo-4/AM assay
Assay type: functional, cell-based
condition-label: hek293; read-out: EC50
observed-property: EC50 (µM)

[[record]]
chemical_structure = "CC(C)(C)c1onc(O)c1C[C@H](N)C(=O)O"
measured = 150

